Measured rate accompanies every entry in the list below.
target: hSARM1 SAM-TIR (Homo sapiens, UniProt Q6SZW1); construct: made in house; assay: Base exchange reactions at neutral pH (HPLC); type: biochemical; conditions: NAD […] alone or + AcPyr 2 mM / Vacor 0.5 mM / Na 2 mM
Sequence (Q6SZW1 409-724): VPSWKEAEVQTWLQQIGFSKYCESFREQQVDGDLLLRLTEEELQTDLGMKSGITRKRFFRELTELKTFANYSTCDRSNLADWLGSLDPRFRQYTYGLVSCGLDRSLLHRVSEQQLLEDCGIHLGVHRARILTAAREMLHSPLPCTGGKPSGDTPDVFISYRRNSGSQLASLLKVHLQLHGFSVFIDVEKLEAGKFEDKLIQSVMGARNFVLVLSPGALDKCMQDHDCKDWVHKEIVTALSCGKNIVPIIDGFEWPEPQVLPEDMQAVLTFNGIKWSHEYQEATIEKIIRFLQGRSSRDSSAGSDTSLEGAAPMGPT
Measurement name: rate (mU/mg)

| Compound | Assay result |
| --- | --- |
| NC(=O)c1ccc[n+]([C@@H]2O[C@H](COP(=O)([O-])OP(=O)(O)OC[C@H]3O[C@@H](n4cnc5c(N)ncnc54)[C@H](O)[C@@H]3O)[C@@H](O)[C@H]2O)c1 [NAD, nicotinamide adenine dinucleotide] | 342.4 |
| CC(=O)c1cccnc1 | 427.3 |
| O=C(NCc1cccnc1)Nc1ccc([N+](=O)[O-])cc1 | 284.8 |
| O=C(O)c1cccnc1 | 315.2 |
